# Method: Pharmacokinetics in mice (IP, IV, PO)
# Type: in vivo
# Protocol conditions: mouse, in vivo; mice, IP 10 mg/kg
Measured quantity: Cmax (ng/mL)

A: C=CC(=O)Nc1cccc(C)c1Nc1cc(-c2cccnc2Nc2c(Cl)c(OC)cc(OC)c2Cl)ncn1 [Compound 5, reference compound]
B: C=CC(=O)N[C@H]1COC[C@H]1Nc1cc(-c2cccnc2Nc2c(Cl)c(OC)cc(OC)c2Cl)ncn1
(Q) Pick the one with the larger Cmax: A vs B // caller expects the label of the chosen entry
(A) B
(B: 14900 ng/mL, A: 865 ng/mL)

---

This listing pairs molecules with measured IC50.
# Subject of test: FGFR2 (Homo sapiens, UniProt P21802)
# Sequence (P21802 22-821): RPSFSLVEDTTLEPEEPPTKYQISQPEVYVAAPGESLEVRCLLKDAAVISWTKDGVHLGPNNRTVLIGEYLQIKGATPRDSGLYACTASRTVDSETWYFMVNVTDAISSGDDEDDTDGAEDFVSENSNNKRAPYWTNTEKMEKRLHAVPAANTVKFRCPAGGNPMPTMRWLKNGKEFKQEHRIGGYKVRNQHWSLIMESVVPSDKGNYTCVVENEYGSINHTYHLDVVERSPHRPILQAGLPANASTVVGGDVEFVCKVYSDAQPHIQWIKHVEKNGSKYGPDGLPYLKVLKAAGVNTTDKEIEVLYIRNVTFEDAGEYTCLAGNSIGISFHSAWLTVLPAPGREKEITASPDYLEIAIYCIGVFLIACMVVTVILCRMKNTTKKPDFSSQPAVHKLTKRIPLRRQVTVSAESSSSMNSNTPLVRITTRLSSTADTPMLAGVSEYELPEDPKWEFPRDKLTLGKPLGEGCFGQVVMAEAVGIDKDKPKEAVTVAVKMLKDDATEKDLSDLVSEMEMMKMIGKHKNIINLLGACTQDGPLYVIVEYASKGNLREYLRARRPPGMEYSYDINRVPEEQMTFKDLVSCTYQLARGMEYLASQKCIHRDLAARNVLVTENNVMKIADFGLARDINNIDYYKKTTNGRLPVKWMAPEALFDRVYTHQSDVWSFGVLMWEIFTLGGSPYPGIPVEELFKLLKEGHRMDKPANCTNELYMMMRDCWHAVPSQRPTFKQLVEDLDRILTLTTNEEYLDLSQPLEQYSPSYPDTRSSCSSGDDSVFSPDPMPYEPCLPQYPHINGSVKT
# Method: FGFR2 kinase inhibition (IC50)
# Format: biochemical
# Protocol conditions: read-out: FGFR2 Inhibition (IC50 class)

{"columns": ["Molecule", "Data value"],
 "data": [
  ["C=CC(=O)Nc1cc(OC2CCN(C)CC2)ccc1Nc1cc(-c2cccnc2Nc2c(Cl)c(OC)cc(OC)c2Cl)ncn1 [Compound 8]", "100 to 1000 nM"],
  ["C=CC(=O)Nc1cc(OC2CN(C)C2)ccc1Nc1cc(-c2cccnc2Nc2c(Cl)c(OC)cc(OC)c2Cl)ncn1 [Compound 6]", "100 to 1000 nM"]
]}

(Q) What IC50 value was documented for this molecule, C=CC(=O)Nc1cc(OCCN(CC)CC)ccc1Nc1cc(-c2cccnc2Nc2c(Cl)c(OC)cc(OC)c2Cl)ncn1 [Compound 15] ?
(A) ≥ 1000 nM

(Q) What IC50 value was documented for this molecule, C=CC(=O)Nc1cc(OCCN2CCCC2)ccc1Nc1cc(-c2cccnc2Nc2c(Cl)c(OC)cc(OC)c2Cl)ncn1 [Compound 12] ?
(A) 100 to 1000 nM

(Q) What IC50 value was documented for this molecule, C=CC(=O)N[C@H]1COC[C@H]1Nc1cc(-c2cccnc2Nc2c(Cl)c(OC)cc(OC)c2Cl)ncn1 [Compound 1] ?
(A) ≥ 1000 nM

(Q) What IC50 value was documented for this molecule, C=CC(=O)Nc1cc(OCC2CN(C)C2)ccc1Nc1cc(-c2cccnc2Nc2c(Cl)c(OC)cc(OC)c2Cl)ncn1 [Compound 7] ?
(A) 100 to 1000 nM

(Q) What IC50 value was documented for this molecule, C=CC(=O)NC1CC1Nc1cc(-c2cccnc2Nc2c(Cl)c(OC)cc(OC)c2Cl)ncn1 (centres unmarked) [Compound 2] ?
(A) 100 to 1000 nM

(Q) What IC50 value was documented for this molecule, C=CC(=O)Nc1cc(OC2COC2)ccc1Nc1cc(-c2cccnc2Nc2c(Cl)c(OC)cc(OC)c2Cl)ncn1 [Compound 11] ?
(A) ≥ 1000 nM

(Q) What IC50 value was documented for this molecule, C=CC(=O)Nc1cc(OCCN(C)C)ccc1Nc1cc(-c2cccnc2Nc2c(Cl)c(OC)cc(OC)c2Cl)ncn1 [Compound 14] ?
(A) ≥ 1000 nM

(Q) What IC50 value was documented for this molecule, C=CC(=O)Nc1cc(OC2CCN(C)C2)ccc1Nc1cc(-c2cccnc2Nc2c(Cl)c(OC)cc(OC)c2Cl)ncn1 (centres unmarked) [Compound 9] ?
(A) 100 to 1000 nM

(Q) What IC50 value was documented for this molecule, C=CC(=O)Nc1cc(OC2CCOC2)ccc1Nc1cc(-c2cccnc2Nc2c(Cl)c(OC)cc(OC)c2Cl)ncn1 (centres unmarked) [Compound 10] ?
(A) ≥ 1000 nM
